# TARGET: T1, DVL3, Q92997
# T1 sequence (Q92997 244-331, limits assumed, looked up): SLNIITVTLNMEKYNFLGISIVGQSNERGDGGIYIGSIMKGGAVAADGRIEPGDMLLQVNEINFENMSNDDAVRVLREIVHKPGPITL
# EXPERIMENT NOTES: holdup assay
# Parameters: key: below the threshold = too weak to quantify, mostly under pKd 3.1 to 4
# APPLIED CONDITIONS: plain residues with an end cap or a label only (N-terminal biotin on a linker: ahx)
EXPERIMENTAL ENDPOINT: pKd

Recorded pKd, per entry:
>  <BINDER>
HSATSVHTSV [MTMR1, Q13613]

>  <pKd>
below the threshold

$$$$
>  <BINDER>
PKMKLNETSF [SHKBP1, Q8TBC3]

>  <pKd>
below the threshold

$$$$
>  <BINDER>
SAPATLSSRA [PDLIM2, Q96JY6]

>  <pKd>
below the threshold

$$$$
>  <BINDER>
VNENQKEYFF [CNTNAP4, Q9C0A0]

>  <pKd>
4.9

$$$$
>  <BINDER>
KDECVIATEV [DLL1, O00548]

>  <pKd>
below the threshold

$$$$

Parameter requested: pKd. Apply to each item below.
1. SKKNELFSNL [NHERF1, O14745]
2. AKPQPVDSWV [ARVCF, O00192]
3. YNSFLSVTTV [PDZRN3, Q9UPQ7]
4. KEYDDELTFF [USH1C, Q9Y6N9]
5. ADENEQVSAV [RAPGEF6, Q8TEU7]

["below the threshold", 3.96, "below the threshold", 3.62, "below the threshold"]
